Where these numbers come from: ChEMBL document CHEMBL1126780

// endpoint pIC50 / system Human immunodeficiency virus type 1 reverse transcriptase (Human immunodeficiency virus 1)
One number for each entry, as −log10 of the molar value.

As a guide, the following entries are already answered.
{"COMPOUND": "Cc1cccc(C23SCCN2C(=O)c2ccccc23)n1 (stereo not given)", "TGT": "Human immunodeficiency virus type 1 reverse transcriptase (Human immunodeficiency virus 1)", "pIC50": 5.39}
{"COMPOUND": "Nc1ccc2c(c1)C1(c3ccccc3)SCCN1C2=O (stereo not given)", "TGT": "Human immunodeficiency virus type 1 reverse transcriptase (Human immunodeficiency virus 1)", "pIC50": 5.35}
{"COMPOUND": "S=C1c2ccccc2C2(c3ccccc3)SCCN12 (stereo not given)", "TGT": "Human immunodeficiency virus type 1 reverse transcriptase (Human immunodeficiency virus 1)", "pIC50": 5.46}
{"COMPOUND": "O=C1c2ccccc2C2(c3cccc(C(F)(F)F)c3)SCCN12 (stereo not given)", "TGT": "Human immunodeficiency virus type 1 reverse transcriptase (Human immunodeficiency virus 1)", "pIC50": 5.98}

Provide one value: measured pIC50 of COC(=O)[C@H]1CSC2(c3ccccc3)c3ccccc3C(=O)N12 (stereo not given in full) 6.66
